- System: D-283MED (Other Solid Carcinomas)
- methodSummary: Bliss excess, mean over the matrix (fraction); higher = more synergy;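 note: after 72 h of two-drug dosing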
Catalogue of molecules with associated Bliss excess
I only need the number, thanks.

Cc1c2c(nn1C)CSCc1cc(n(C)n1)CSc1cc(c3ccccc3c1)OCCCc1c(C(=O)O)n(C)c3c-2c(Cl)ccc13 [AZD5991] + CC1(C)CCC(CN2CCN(c3ccc(C(=O)NS(=O)(=O)c4ccc(NCC5CCOCC5)c([N+](=O)[O-])c4)c(Oc4cnc5[nH]ccc5c4)c3)CC2)=C(c2ccc(Cl)cc2)C1 [Venetoclax] (first compound max 1 µM, 7x7, partner max 1 µM) = 0.0701
Cc1c2c(nn1C)CSCc1cc(n(C)n1)CSc1cc(c3ccccc3c1)OCCCc1c(C(=O)O)n(C)c3c-2c(Cl)ccc13 [AZD5991] + C[C@@H]1COCCN1C2=NC(=NC(=C2)C3(CC3)[S@](=N)(=O)C)C4=C5C=CNC5=NC=C4 [AZD6738] (first compound max 1 µM, 7x7, partner max 10 µM) = -0.0109
Cn1cnc2c(F)c(Nc3ccc(Br)cc3Cl)c(C(=O)NOCCO)cc21 [Selumetinib] + CC(C)n1c(=O)n(C)c2cnc3cc(F)c(-c4ccc(OCCCN5CCCCC5)nc4)cc3c21 [AZD1390] (first compound max 10 µM, 7x7, partner max 0.3 µM) = -0.0123

Let's switch to this molecule now.
Prompt: Please report the recorded Bliss excess for Cc1cc2ncnn2cc1Nc1ncc2c(n1)n(C1CCOCC1)c(=O)n2C [AZD7648] + C=CCn1c(=O)c2cnc(Nc3ccc(N4CCN(C)CC4)cc3)nc2n1-c1cccc(C(C)(C)O)n1 [AZD1775] (first compound max 10 µM, partner max 1 µM) .
Completion: -0.0959

* * *

- Tested on: HOP-92 (Non-Small Cell Lung Carcinoma)
- methodSummary: Bliss excess, mean over the matrix (fraction); higher = more synergy
Category scheme (Bliss excess): label 0: < -0.02; label 1: ≥ -0.02 and < -0.003; label 2: ≥ -0.003

Solved cases (4 shown):
Cc1c2c(nn1C)CSCc1cc(n(C)n1)CSc1cc(c3ccccc3c1)OCCCc1c(C(=O)O)n(C)c3c-2c(Cl)ccc13 [AZD5991] + C[C@@H]1COCCN1C2=NC(=NC(=C2)C3(CC3)[S@](=N)(=O)C)C4=C5C=CNC5=NC=C4 [AZD6738] (first compound max 1 µM, 7x7, partner max 10 µM) = label 2
Cn1cnc2c(F)c(Nc3ccc(Br)cc3Cl)c(C(=O)NOCCO)cc21 [Selumetinib] + CCN(CCO)CCCOc1ccc2c(Nc3cc(CC(=O)Nc4cccc(F)c4)[nH]n3)ncnc2c1 [AZD2811] (first compound max 10 µM, 7x7, partner max 1 µM) = label 1
COc1nnc2ccc(N3CCC(c4ccc(OCCN5CCN(C)C(=O)[C@H]5C)cc4)CC3)nn12 [AZD5153] + Cc1c2c(nn1C)CSCc1cc(n(C)n1)CSc1cc(c3ccccc3c1)OCCCc1c(C(=O)O)n(C)c3c-2c(Cl)ccc13 [AZD5991] (first compound max 1 µM, 7x7, partner max 1 µM) = label 2
Cc1cc2ncnn2cc1Nc1ncc2c(n1)n(C1CCOCC1)c(=O)n2C [AZD7648] + CN(C)CCCOc1ccc(-c2ccc3ncc4c(c3c2)n(C2CCOCC2)c(=O)n4C)cn1 [AZD0156] (first compound max 10 µM, 7x7, partner max 1 µM) = label 1

Prompt: Please indicate the class for C[C@@H](c1ccc2nccn2c1)n1nnc2ncc(-c3cnn(C)c3)nc21 [Savolitinib] + CC1(C)CCC(CN2CCN(c3ccc(C(=O)NS(=O)(=O)c4ccc(NCC5CCOCC5)c([N+](=O)[O-])c4)c(Oc4cnc5[nH]ccc5c4)c3)CC2)=C(c2ccc(Cl)cc2)C1 [Venetoclax] (first compound max 1 µM, 7x7, partner max 1 µM) based on its Bliss excess.
Completion: label 1

Prompt: Which bin should I file Cc1c2c(nn1C)CSCc1cc(n(C)n1)CSc1cc(c3ccccc3c1)OCCCc1c(C(=O)O)n(C)c3c-2c(Cl)ccc13 [AZD5991] + C=CCn1c(=O)c2cnc(Nc3ccc(N4CCN(C)CC4)cc3)nc2n1-c1cccc(C(C)(C)O)n1 [AZD1775] (first compound max 1 µM, partner max 1 µM) under?
Completion: label 1
